B1: OAS1 (parent)
chain: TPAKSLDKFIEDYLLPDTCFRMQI

# Variants of: B1
# test: protein stability index of a GFP-peptide fusion (GPS, HEK-293T) (PSI 1-6); higher = more stable;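 also: lentivirally expressed fusions sorted by FACS into six bins by GFP to DsRed ratio, PSI derived from sequencing read proportions per bin multiplied by bin number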
# condition.summary: c terminus: a fixed tail appended
recorded.endpoint: protein stability index

mutation.key: M22K
recorded.endpoint: protein stability index
reported.value: 1.98

mutation.key: P2W
recorded.endpoint: protein stability index
reported.value: 3.86

mutation.key: Q23K
recorded.endpoint: protein stability index
reported.value: 1.54

What protein stability index value was documented for this variant, D12M ?
2.77

Try this variant next: D7A
2.77
